Target: rhGM-CSF (Homo sapiens, UniProt P04141)
Sequence (P04141 18-144): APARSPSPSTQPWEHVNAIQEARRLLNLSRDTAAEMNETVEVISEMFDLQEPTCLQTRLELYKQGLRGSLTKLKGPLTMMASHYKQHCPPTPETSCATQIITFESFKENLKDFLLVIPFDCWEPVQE
Assay: Competition for nucleotide photoprobe incorporation into rhGM-CSF
Assay type: binding
Conditions: photoprobe incorporation into rhGM-CSF compared to control; read-out: Half-maximal inhibition of nucleotide binding
quantity_kind: pIC50
Please report pIC50 as the negative decimal logarithm of the molar concentration, giving only the number.

[ask] Recorded pIC50 of O=C(Nc1cccc(C(=O)Nc2ccc(S(=O)(=O)O)c3cc(S(=O)(=O)O)cc(S(=O)(=O)O)c23)c1)Nc1cccc(C(=O)Nc2ccc(S(=O)(=O)O)c3cc(S(=O)(=O)O)cc(S(=O)(=O)O)c23)c1 [NF023] , please.
[reply] 5.30

[ask] Recorded pIC50 of O=C(Nc1cc(C(=O)Nc2ccc(S(=O)(=O)O)cc2)cc(C(=O)Nc2ccc(S(=O)(=O)O)cc2)c1)Nc1cc(C(=O)Nc2ccc(S(=O)(=O)O)cc2)cc(C(=O)Nc2ccc(S(=O)(=O)O)cc2)c1 [NF110] , please.
[reply] 5.82

* * *

Tested on: Mo7E
Test: Proliferation of GM-CSF dependent Mo7E cells
Format: cell-based, human
Settings: read-out: Half-maximal inhibition of Mo/7E growth (GM-CSF dependent)
Source text: control. Similarly, cell proliferating of GM-CSF dependent (Mo7E) and autonomously proliferation (GM-CSF independent) human leukemia cells (HL-60) gave half- maximal inhibition of growth. Results are expressed as […]
quantity_kind: pIC50
Please report pIC50 as the negative decimal logarithm of the molar concentration, giving only the number.

[ask] Recorded pIC50 of O=C(Nc1cc(C(=O)Nc2ccc(S(=O)(=O)O)cc2)cc(C(=O)Nc2ccc(S(=O)(=O)O)cc2)c1)Nc1cc(C(=O)Nc2ccc(S(=O)(=O)O)cc2)cc(C(=O)Nc2ccc(S(=O)(=O)O)cc2)c1 , please.
[reply] 4.28

Value source: patent US6121320A
